Target: UniProtKB A0A2S0X9G3
Test: Fluorescence competitive binding assay (1-NPN probe) with recombinant BodoOBP8
Settings: Ki, pH 7.4; Figure 3B
Description: For the binding assays, all test ligands (Table S1) were dissolved in methanol, and N-phenyl-1-naphthylamine (1-NPN) was used as a fluorescent probe.

>  <molecule>
C=CCSSCC=C [Diallyl disulfide]

>  <targetOrSystem>
UniProtKB A0A2S0X9G3

>  <outputUnit>
µM

>  <Ki>
4.04

$$$$

----------
target: UniProt A0A2S0X9G3; assay: Fluorescence competitive binding assay (1-NPN probe) with recombinant BodoOBP8; conditions: pH 7.4; Figure 3B; read-out: Ki
pKi: −log10 of the molar value.

>  <compound>
C=CCSSC [Methyl allyl disulfide]

>  <pKi>
5.17

$$$$
>  <compound>
CCCCCCCCCCCCCCCCC [n-Heptadecane]

>  <pKi>
5.39

$$$$

----------
molecular target: BodoOBP8 (Bradysia odoriphaga); experiment: Fluorescence competitive binding assay (1-NPN probe) with recombinant BodoOBP8
Sequence (A0A2S0X9G3 entry or part of it): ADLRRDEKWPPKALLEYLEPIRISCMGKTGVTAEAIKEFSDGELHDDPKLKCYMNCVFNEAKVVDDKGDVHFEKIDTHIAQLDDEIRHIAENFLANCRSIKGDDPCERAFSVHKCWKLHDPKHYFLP
endpointName: Kd (nM)

>  <molecule>
c1ccc(Nc2cccc3ccccc23)cc1 [1-NPN, N-phenyl-1-naphthylamine, reference compound]

>  <quantitativeResult>
2210

$$$$
